Test system: tissues of the injected area (rat paw)
Assay: H&E staining histological test (inflammation) of injected rat paw
Assay type: in vivo, Sprague Dawley rats
Settings: bile acid single composition 1.0% (w/v), injected rat paw

chemical.string: C[C@H](CCC(=O)NCCS(=O)(=O)O)[C@H]1CC[C@H]2[C@@H]3[C@H](O)C[C@@H]4C[C@H](O)CC[C@]4(C)[C@H]3C[C@H](O)[C@]12C
Inflammation (H&E), BA % (w/v) 1.0: +

chemical.string: C[C@H](CCC(=O)NCC(=O)O)[C@H]1CC[C@H]2[C@@H]3[C@H](O)C[C@@H]4C[C@H](O)CC[C@]4(C)[C@H]3C[C@H](O)[C@]12C
Inflammation (H&E), BA % (w/v) 1.0: +

chemical.string: C[C@H](CCC(=O)NCCS(=O)(=O)O)[C@H]1CC[C@H]2[C@@H]3[C@@H](O)C[C@@H]4C[C@H](O)CC[C@]4(C)[C@H]3CC[C@]12C
Inflammation (H&E), BA % (w/v) 1.0: −

chemical.string: C[C@H](CCC(=O)O)[C@H]1CC[C@H]2[C@@H]3[C@@H](O)C[C@@H]4C[C@H](O)CC[C@]4(C)[C@H]3CC[C@]12C
Inflammation (H&E), BA % (w/v) 1.0: +++

chemical.string: C[C@H](CCC(=O)O)[C@H]1CC[C@H]2[C@@H]3CC[C@@H]4C[C@H](O)CC[C@]4(C)[C@H]3C[C@H](O)[C@]12C
Inflammation (H&E), BA % (w/v) 1.0: +++

chemical.string: C[C@H](CCC(=O)O)[C@H]1CC[C@H]2[C@@H]3[C@H](O)C[C@@H]4C[C@H](O)CC[C@]4(C)[C@H]3CC[C@]12C
Inflammation (H&E), BA % (w/v) 1.0: ++

* * *

Test system: sole of the rat paws
Test: Measurement of skin lesion (erythema) on rat paw;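 note: grades − to ++++ mean no to extremely severe erythema versus before injection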
Type: in vivo, Sprague Dawley rats
Conditions: bile acid single composition 2.5% (w/v)
outcome.measure: grade of skin lesion (erythema), 1 hour after administration

compound: C[C@H](CCC(=O)NCCS(=O)(=O)O)[C@H]1CC[C@H]2[C@@H]3[C@@H](O)C[C@@H]4C[C@H](O)CC[C@]4(C)[C@H]3CC[C@]12C
target.entity: sole of the rat paws
result: −

compound: C[C@H](CCC(=O)NCC(=O)O)[C@H]1CC[C@H]2[C@@H]3[C@H](O)C[C@@H]4C[C@H](O)CC[C@]4(C)[C@H]3C[C@H](O)[C@]12C
target.entity: sole of the rat paws
result: +

compound: C[C@H](CCC(=O)O)[C@H]1CC[C@H]2[C@@H]3C[C@H](O)[C@@H]4C[C@H](O)CC[C@]4(C)[C@H]3CC[C@]12C
target.entity: sole of the rat paws
result: +++

compound: C[C@H](CCC(=O)O)[C@H]1CC[C@H]2[C@@H]3[C@H](O)C[C@@H]4C[C@H](O)CC[C@]4(C)[C@H]3CC[C@]12C
target.entity: sole of the rat paws
result: ++++

compound: C[C@H](CCC(=O)NCC(=O)O)[C@H]1CC[C@H]2[C@@H]3CCC4C[C@H](O)CC[C@]4(C)[C@H]3C[C@H](O)[C@]12C (some centres unmarked)
target.entity: sole of the rat paws
result: ++++

* * *

System: sole of the rat paws
Experiment: Measurement of skin lesion (erythema) on rat paw;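 note: grades − to ++++ mean no to extremely severe erythema versus before injection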
Assay type: in vivo, Sprague Dawley rats
Details: bile acid single composition 5.0% (w/v)
Procedure: To evaluate the degree of edema, each test compositions described above were injected into the paw of the rats. Specifically, male Sprague Dawley rats (6 weeks old) were purchased and used after one week of adaptation. The rats (body weight: 170˜200 g) were randomly selected and the thickness of the rat paw were measured with a caliper before the administration of the test compositions. […] The grades of skin lesion were evaluated as 0 to 4 grades.
outcome.measure: grade of skin lesion (erythema), 1 hour after administration

compound: C[C@H](CCC(=O)O)[C@H]1CC[C@H]2[C@@H]3C[C@H](O)[C@@H]4C[C@H](O)CC[C@]4(C)[C@H]3CC[C@]12C
result: ++++
//
compound: C[C@H](CCC(=O)NCC(=O)O)[C@H]1CC[C@H]2[C@@H]3CCC4C[C@H](O)CC[C@]4(C)[C@H]3C[C@H](O)[C@]12C (some centres unmarked)
result: ++++
//
compound: C[C@H](CCC(=O)NCCS(=O)(=O)O)[C@H]1CC[C@H]2[C@@H]3[C@@H](O)C[C@@H]4C[C@H](O)CC[C@]4(C)[C@H]3CC[C@]12C
result: −
//
compound: C[C@H](CCC(=O)O)[C@H]1CC[C@H]2[C@@H]3[C@H](O)C[C@@H]4C[C@H](O)CC[C@]4(C)[C@H]3CC[C@]12C
result: ++++
//
compound: C[C@H](CCC(=O)NCC(=O)O)[C@H]1CC[C@H]2[C@@H]3[C@H](O)C[C@@H]4C[C@H](O)CC[C@]4(C)[C@H]3C[C@H](O)[C@]12C
result: +
//
compound: C[C@H](CCC(=O)NCCS(=O)(=O)O)[C@H]1CC[C@H]2C3CC[C@@H]4C[C@H](O)CC[C@]4(C)[C@H]3C[C@H](O)[C@]12C (some centres unmarked)
result: ++++
//
compound: C[C@H](CCC(=O)O)[C@H]1CC[C@H]2[C@@H]3[C@@H](O)C[C@@H]4C[C@H](O)CC[C@]4(C)[C@H]3CC[C@]12C
result: ++++
//
compound: C[C@H](CCC(=O)O)[C@H]1CC[C@H]2[C@@H]3CC[C@@H]4C[C@H](O)CC[C@]4(C)[C@H]3C[C@H](O)[C@]12C
result: ++++
